System: SN12C renal
Experiment: NCI-60 one-dose screen, 48 h (100 = growth as untreated, 0 = no growth, -100 = all killed)
Settings: 10 µM unless noted
The panel holds about 83,000 compounds, 20% with a hit somewhere; the sample as a whole holds those more often.
Classify on growth using A (below 40%), B (40% to below 80%), C (80% or more)

Field: example entries. Status: answers known.
[[record]]
molecule = "COc1ccc(S(=O)(=O)n2cc(C(=O)C(=O)Nc3ccncc3)c3ccccc32)cc1F"
assigned_category = "B"

[[record]]
molecule = "COc1cc(-c2ncn(/C=C\\C(=O)OC(C)C)n2)cc(C(F)(F)F)c1"
assigned_category = "A"

[[record]]
molecule = "O=C1C2(c3ccccc3)C(c3ccccc3)=C(c3ccccc3)C1(c1ccccc1)C1CC=CC12 (configuration not stated)"
assigned_category = "C"

[[record]]
molecule = "Nc1nc(Nc2cc(Cl)cc(Cl)c2)nn1S(=O)(=O)c1ccc2ccccc2c1"
assigned_category = "B"

[[record]]
molecule = "N/C(=N\\C(N)=N\\c1nc2ccccc2s1)c1ccncc1"
assigned_category = "B"


### Prompt Note: place this molecule into its band. Item: Cc1cc(C2=NNC(=O)Cc3cc4c(cc32)OCCO4)cc(C)c1N
### Response B

### Prompt Note: place this molecule into its band. Item: COc1ccc(/C=C2/C(=O)NC(SCC(=O)N3CCN(c4cc5c(cc4F)c(=O)c(C(=O)O)cn5C4CC4)CC3)=NC2N)cc1OC (configuration not stated)
### Response C

### Prompt Note: place this molecule into its band. Item: COc1ccc(C(=O)N2NC(=O)/C(=C/c3ccc(Br)cc3)N=C2c2ccccc2)cc1
### Response B

### Prompt Note: place this molecule into its band. Item: CC(C)(C)c1[nH]nc2c1C(c1cc3ccccc3[nH]c1=O)Nc1cc(C(=O)Nc3ccc(Cl)cc3)ccc1N2 (configuration not stated)
### Response B

### Prompt Note: place this molecule into its band. Item: COc1ccc(-c2c(N)n[nH]c2-c2cc3c(c(OC)c2OC)OCO3)cc1
### Response C

### Prompt Note: place this molecule into its band. Item: COc1cc(Nc2nc(N[C@H]3CCCC[C@@H]3N)nc3cc[nH]c(=O)c23)cc(OC)c1
### Response A
